Assay: label from the status in PepcDB records
PROPERTY: protein production

MSFLVLLLAVLIEKFSALRQRVQRDEPWLNAFARREASPRTAKRPWLTLALLILVPVLLLQLALTIIGSVAYGWLVLPIHLLVLIYSLGRVDLIAVLGPFRDACRRGDAQAAVHVAQRDMRVEADNGEQLLQGVQGYMLWQAFQSFFAVIFWYFVLGPVAALAYRLLALAAEHGKTPPLVERAGQLRHAFDWVPVRLLAASFALVGNFVAVSRVMLHELLNWNISAAQLITRVGCAASEVPPPVIGTQGVTSLDMLWELLVRAAIVWYAGFALWTLLR : failed
MPGSRDILADLVAFDTVSRESNLALIDYVRDYLAGFGVDSELFFDADGRKANLYATIGPSDRGGVCLSGHTDVVPADGQAWSVPPFRLSERDGRLYGRGTADMKGYLACVLAAVPAFLAAPLRLPVHLAFSYDEEVGCLGVRSLLAALERRPHKPLLCIIGEPTELKPVLGHKGKLAMRCEVHGAACHSAYAPQGVNAIEYAARLIGRLGEIGARLAVPERHDRRFDPPYSTVQTGLIQGGRALNIVPAECRFDFEVRALPADDPRQVAEELRDYAESELLPRMRAVERSTDIRFTPLSAYPGLLTADDSQAAELIGLLSGSTDFSTVAFGTEGGLFHQAGIPAVICGPGSMDQGHKPDEFVSLAQLEACDALLARLAAW : failed

* * *

Experiment: label from the status in PepcDB records
PROPERTY: protein production

Check out these entries, answers already filled in.
MLKSEDADYEKAMKDKVGTGPQEYLKQLSDSLVKNQSAASVEVVSGATHSSDAFINYANQLIQAAQKADTTTISINNLAKMEDGTYKLEEQNYAHGYRVVFSMDVKDGKITKSDYNYVDKDGKLKSDDADYEKNMKAKSGTGPKEYIPALNKSLVEKQDVAAVDTVSGATNSSNQFKIYAAQLQNAAQNGNTDTIKVYNLVEAELEHHHHHH : failed
MTEDQAFWNAFAPDYAAAEQASRLPIAHDVIAWLRSTQLLPAHSAVDLAAGTGRYAVQMMPWVQELTLIDWSSAMLAFAKERMHQQADTKAQFIVADWRKLHKPLNADMLFVSQLPTLKPQDLKMLMNWASQTVVLNFQTAQSDALLEQAASLLGLQLPPVYQADPARMISFKVWLTAQRIPFQSHSLTYEIEEQTTLSDLLPDLATPIGLKTAASLAKAITGHENTHVQVTDRLTYTYTQLVWHVLEHHHHHH : failed
MRQWIAVFALVGSVAAQAGVADQAAAVSALKEGKLAMDVRSQTDYEAGTVLNAVRVDERRLVNQMKQVLSDRNAVFVIFSSTDSKADKAQEKLRAAGYFSVINGGNYEELHNALYDITDDPAE : failed
MMKRVAVTGAAGRVGTLLRPLLRSHFEHLSLIDLQEPDELGENENFVRADFTKLDEATAALKDIDGVIHLAGIASGTDMNAILHANVLGTYNLYEAARINKVQRVVYASSNHATGFYPRGQLVSPLDPMRPDSPYGLSKCWGELVAGLYYDTSGIRSLSIRIGNAGTYPNSERSIAIWISARDLAQLVRIGLSHPLIAATVVYGVSDTEEKWWENDLATRLGYQPQDRPRDHALIEEGSEGPVALAFQGGGFCEINHDGTIRMRDADGLAKSPETVE : failed
MTQNNILLISGAILPVIITVIIGYISGKRKDFNWQQAGDINKIVMLYALPLSIFSNMVMTPRHIVMTMGPVAVAIILALILSFVIPLLVARYLFRRDLALSTLQALAIGSPAVPFIGTSVLAFLFGTVSASLITVSSITQNVFQLPLVMILMSVATGDKSQHISFGARVVNAIKQPVVWSPVIALIIVLADIHIPQTISMSLGLLGKASGGLALFAAGIVLYTRSIVITTATIITVIARNILVPGACYLILLKMGFSMEQIKEVVLTMAIPVGSIAIIIAMQYKTGEQEMASTMALSIIASIITMGGFIFLTF : failed

Let's switch to this sequence now.
# protein production of MDKRFVQAHKEARWALWLTLLYLAAWLAAAYLPGVAIGFTGLPHWFEMACLLVPLLFILLCWAMVKLIFRDISLEDDDAV = failed

* * *

Assay: label from the status in PepcDB records
PROPERTY: protein production

Check out these entries, answers already filled in.
MDSDPLGVFPNSPKYHPYYSQTTEFGGVIDLGLSLRTIQHEIYHSSGQIMTCGKGYCSNEGYRRKWGYVKVTMDGLVVGRKVCVLDHGSYSTLAHQLEDMFGMQSVSGLRLFQMESEFCLVYRDEEGLWRNAGDVPWNEFIESVERLRITRRNDAVLPF : failed
MRRLLITILIFLLSNAGCCAPVFEIIPLGVYGGLKDGNLSAYLIKAIESKNYTALDGGTLVRGLEVAVDRQSLPSKKVDDLLQKHIPAYLISHAHLDHVMGLVMAQPELREKQTIMAREETMQALQDNIFNWSVWGNFGDSGAIPHLNFQHYQTLPLLQWLAIPDTDLHVKVFPLSHSGMASSAFLIRYKTEYALYFGDTGADRIEKSTNMENIWKEIAPLIRNKQLHAIMLECSFLNSQPDDKLFGHLKPNLFMSELRHLASIVDPFDSRNSLRGLPVVVTHIKPKLADFSNTNEDTEKQVINELSQENDIGVELIKPEQGITLSL : failed
MDVFATGAGQVDPAKVLSPGLVYDATTEDYLKFIQGTGMDLGMEGLGTTQARDMNVPSFALGNLAGKIEVTRTLTALTPGTYRASVNVPGVNVKVTPSVLTFGAPGEKKTFKVQFENNNAALGKFAMGSLNWQGANKTVTSPIAVRPLEHHHHHH : failed
MRMKRFLTIVQILLVVIIIIFGYKIVQTYIEDKQERANYEKLQQKFQMLMSKHQEHVRPQFESLEKINKDIVGWIKLSGTSLNYPVLQGKTNHDYLNLDFEREHRRKGSIFMDFRNELKNLNHNTILYGHHVGDNTMFDVLEDYLKQSFYEKHKIIEFDNKYGKYQLQVFSAYKTTTKDNYIRTDFENDQDYQQFLDETKRKSVINSDVNVTVKDKIMTLSTCEDAYSETTKRIVVVAKIIKVS : not failed
MKKGTVLNSEISSVISRLGHTDTLVVCDAGLPIPNSTARIDMALTQGVPSFMQVVDVVTREMQVEAAILATEIKQQNPQLHETLLTHLEQLQQHQGNTIKISYTTHEQFKKLTADSQAVIRSGECSPYANVILCAGVTF : not failed

# protein production of MKMRKLVKDFGDDYTLIQDSQEVKAILEYIGSEEEPHALFVKVGDGDYEEVWGIDSFVPYNFLEAYRLK = not failed

# protein production of MSETLAVVRASRPNFLLLAPLCAGLGLAVAWQQGQAPELLHTFLVFLGAVLAHAAVNLLNEYDDFRSGLDMITERTPFSGGSGALPEVPTAARRVLWAGLGTLAVVVTIGLYFLWLRGLPLLVLGAAGVVLVLTYTRWITRSPLLCLLAPGMGFGPIMVLGTVIALGASIDTSALLASLVALLMVSELLLINQIPDAEADRAIGRRHLVITLGPEKAAHLVAGLLLASYGVIVAGMVSGYLAMTSLIALAPLPAAVWISLRLPRVLAMPDQLNRVLGANVAVLLSTLALLVTGLSL = failed

* * *

Assay: label from the status in PepcDB records
PROPERTY: protein production

MKERVIITGANGQLGKQLQEELNPEEYDIYPFDKKLLDITNISQVQQVVQEIRPHIIIHCAAYTKVDQAEKERDLAYVINAIGARNVAVASQLVGAKLVYISTDYVFQGDRPEGYDEFHNPAPINIYGASKYAGEQFVKELHNKYFIVRTSWLYGKYGNNFVKTMIRLGKEREEISVVADQIGSPTYVADLNVMINKLIHTSLYGTYHVSNTGSCSWFEFAKKIFSYANMKVNVLPVSTEEFGAAAARPKYSIFQHNMLRLNGFLQMPSWEEGLERFFIETKSH : not failed
MSENKKKFDKKGAKNMDEISKTLFAPIYPIIAENIINRFGITAGTCIDIGSGPGALSIALAKQSDFSIRALDFSKHMNEIALKNIADANLNDRIQIVQGDVHNIPIEDNYADLIVSRGSVFFWEDVATAFREIYRILKSGGKTYIGGGFGNKELRDSISAEMIRKNPDWKEFNRKNISQENVERFQNVLDEIGISSYEIILGDEGFWIIISKTDQEVI : not failed

* * *

Assay: label from the status in PepcDB records
PROPERTY: protein production

Check out these entries, answers already filled in.
MREQLRAHGIGPNDIHTLLLSHFHADHIAGLRDFPRARILASEPGWRAVRGLSGLAAVRQAFLPGLLPPDMESRLSFVEAFALQALPADLAPFSHGRDVSGCGEVFVVDLPGHAAGHLGAFVLGDAGWTLLASDAAWSEEGYREMRGPSELSFLVQHSRRSYYDTLARLHALHRGGRVDILLTHQEETPCLEHHHHHH : failed
LAYEELRQREAQTAMQLAVNNALLTIKDRSRMLLAVCEQIDKLVPCTFLGIRVMDRDGNFRIFDNFMRETPSGFFPVSAHEKLDVPDFAEMARESFSLITSPGCFSGEAFQLLCDKYRLVGLVREKFNICSLISVRLWDLPGSCAGLIISDTSRAFDEHDQETVGLIVPQLSLALQNYLAFEEIDKLRRKLEGEKAYLFEEIKATHD : failed
MNIEQMLAILDPDVVQRLKIAVEIGKWPNGVALTAEQRQICMQAVMIWEHKHLPEEERTGYIDRGTKEEGEECDSHEPEIKPIRFI : failed
MANLFSFLFLGTLGWGMSLYLMKILLVSLTPTEIVLYRMAIGAASLFILAKLFKLKTDNIRGLILDGIIVGTFNMTLPFYLTTYAVKTVSSSLASVINGLTPLCTLILGMVFFSSKQKLGVLNLLSIVLGFIGIIIINSDVSIYQGSAVEFIALLATTISYGVTANYFKYHARTKEPILVSAVSAFVSAITMLIFKCATESSINSWGIPQGMNQIIALLWLGIIGSGFCLYLYCSLIQNAGAVFASMITYLMTITGVIMGMIFLHETISHQVMIGCIFIFFSLILVNHAPLLEKILVSISRQISLKSARRYELNQ : failed
MDIHQELKELSKFLSEYSTSLMAVGVQTSRIVRNTSRIAESFGFFCDMTIFQKTIIMTLRDADNSHSYSTVNKIKPMGLNFAINSALSTLSWEAYDEHLSLSELQRRYHEIVSKPRESKWLVLILVAFANASFCRLFQGDFISMGIVFVATLAGFFVRTELMGRHWNHLAIFIISSFIASMIGSTGYLMHWGDTPDMALGTSVLYLIPGVPLINAIMDIIDGHVLAGTSRFINACLLIICIAIGLSMTLLITGISTL : failed
MKPSLIYMYNINKKQIIISLLSFIFVVAVAFVSLGNYIKQESGEVRQTIIVAFVILVYITFLAMIVIQAVSAFGKMTESTLFRLTSISGKKIVLAILLYAVIYLLIFELIGSIFLYGISMKIIKGTELYEVLFTQSVFNPLKHLFSTMLYVFNLSSILLVLLFSVASVKVFSLKKKKLKYPMVFFLFLLVTKLLGTIYGMLGGLAPAAPLIKKLVYIDESSGADVFLYPEKLMNLYSLSFSIGIFILLVYITGRIIDKKLEV : failed
MDIQNMPREQLGVCAEGNLHSVYLMFNANDNVESQLRPCIANVAQYIYELTDQYSDSAFNGFVAIGANYWDSLYPESRPEMLKPFPAMQEGNREAPAIEYDLFVHLRCDRYDILHLVANEISQMFEDLVELVEEERGFRFMDSRDLTGFVDGTENPKGRHRQEVALVGSEDPEFKGGSYIHVQKYAHNLSKWHRLPLKKQEDIIGRTKQDNIEYESEDKPLTSHIKRVNLKDENGKSIEILRQSMPYGSLKEQGLMFISTCRTPDHFEKMLHSMVFGDGAGNHDHLMHFTSALTGSSFFAPSLDFLMQFDN : not failed
MTASNPTILALDFDGVICDGLIEYFEVAWRTYCQIWSPAENTPPDDLALRFYRLRPVIETGWEMPVLIKALVDGNSDDQILQEWTSITPKILLDDKLQAKEIATKLDGLRDEWIANDLDGWLSLHRFYQGVIEKLKIAVASEVKLYIVTTKEGRFVEQLLHQEGVDLPRDAIFGKEVKRPKYEIIRELIQAADHEPVSLWFVEDRIKTLQLVQQQSDLEDVKLFLADWGYNTQSERKAAQSDPRIQLLSLSQFAKDFPGWV : failed

# protein production of LNSSYVNGNTAGNLYNAGLFCESDGEVFFSNTNDNGRLYAMNIDGSNIHKLSNDTAMYINADKNYVYYVRNNNQKITSQTFFSYDRNSLCRIKRNGHGSTVLDPDPCIYASLIGNYIYYLHYDTQTATSLYRIRIDGEEKKKIKNHYLFTCNTSDRYFYYNNPKNGQLYRYDTASQSEALFYDCNCYKPVVLDDTNVYYMDVNRDNAIVHVNINNPNPVVLTEANIEHYNVYGSLIFYQRGGDNPALCVVKNDGTGFKELAKGEFCNINVTSQYVYFTDFVSNKEYCTSTQNPDTIKALQP = not failed

# protein production of MKLNIKDVVLNYNIIGEGEPIIILHGYSVDHTIMFGCMENLFSDESRYKRIYVDLPGMGKSTSSDSIKTSDNMLDIILEFIMKVTKGENFLLVGESYGGYLSRGVVYKIREKVNGLFLICPAIIPDFNKRTVPEHVILAYDEKLMSKLNKEEAEEFSSMSVVQNEKIYLRFKEEVMSGIKLGNQDFLERLQREGYGFSFDVDKLPQKFDKPTLMLLGKQDASVGYKDAWNILDNYPRATFAVLDMAGHNLQIEQEDIFNLLGKEWISRTYREKDY = failed

# protein production of RQKFINDVLHLLYRPLDWNQSIAKVMELLGRFTQADRSYIFENSPDDSYATNTFEWCQEGIAPQIHLLQHFEYSLMPSWKPLIVEKKMICASDISTLPLDLSETLAPQGIKSILAVSIFAQGRLYGYLGLDSCRKKREWSEEEIELLRSISTIIAGAIERRGWERSEKEQ = failed

# protein production of KRKTKEQLAILKSFFLQCQWARREDYQKLEQITGLPRPEIIQWFGDTRYALKHGQLKWFRDNA = not failed
